Collected set of pKi measured with D(4) dopamine receptor (Homo sapiens, UniProt P21917) across studies.
Target: D(4) dopamine receptor (Homo sapiens, UniProt P21917)
Sequence (P21917 whole entry): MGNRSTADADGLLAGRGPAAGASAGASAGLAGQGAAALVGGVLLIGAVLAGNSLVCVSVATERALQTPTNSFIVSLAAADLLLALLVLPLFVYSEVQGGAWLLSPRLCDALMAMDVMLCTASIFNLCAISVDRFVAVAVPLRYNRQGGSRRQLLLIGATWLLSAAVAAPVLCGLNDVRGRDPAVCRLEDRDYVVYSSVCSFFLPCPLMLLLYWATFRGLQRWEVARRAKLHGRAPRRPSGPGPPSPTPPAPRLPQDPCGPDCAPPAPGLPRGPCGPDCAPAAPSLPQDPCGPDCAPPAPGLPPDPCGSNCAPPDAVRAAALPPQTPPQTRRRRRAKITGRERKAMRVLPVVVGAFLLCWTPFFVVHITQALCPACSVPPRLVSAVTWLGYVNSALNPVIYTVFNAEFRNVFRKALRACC
pKi: −log10 of the molar value.
attribute_measured: pKi

molecule="COc1ccccc1N1CCN(Cc2cn(-c3ccc(OCCCOC4O[C@H](CO)[C@@H](O)[C@H](O)[C@H]4F)cc3)nn2)CC1 (some centres not stated)" system_tested="D(4) dopamine receptor (Homo sapiens, UniProt P21917)" limit_sign== observed_measurement=7.49
molecule=COc1ccccc1N1CCN(CCCNC(=O)NN(Cc2ccc(F)cc2)c2ccccc2)CC1 system_tested="D(4) dopamine receptor (Homo sapiens, UniProt P21917)" limit_sign== observed_measurement=9.26
molecule=CN1CCCc2ccccc2Cc2ccc(O)cc2CCC1 system_tested="D(4) dopamine receptor (Homo sapiens, UniProt P21917)" limit_sign== observed_measurement=6.37
molecule=Cc1nc(CN2CCC(OCc3ccc(Cl)c(F)c3)CC2)c2ccccn12 system_tested="D(4) dopamine receptor (Homo sapiens, UniProt P21917)" limit_sign== observed_measurement=7.02
molecule=O=C(NC1CCN(Cc2ccc(C(F)(F)F)cc2)CC1)c1cccc2ccccc12 system_tested="D(4) dopamine receptor (Homo sapiens, UniProt P21917)" limit_sign== observed_measurement=7.02
molecule=Clc1ccccc1OCCNCCCOc1ccccc1 system_tested="D(4) dopamine receptor (Homo sapiens, UniProt P21917)" limit_sign== observed_measurement=8.36
molecule=COc1ccc2c3c(c(=O)oc2c1)CCN(Cc1ccccc1)C3 system_tested="D(4) dopamine receptor (Homo sapiens, UniProt P21917)" limit_sign=< observed_measurement=5.48
molecule=COc1ccccc1N1CCN(Cc2ccc3cccccc2-3)CC1 system_tested="D(4) dopamine receptor (Homo sapiens, UniProt P21917)" limit_sign== observed_measurement=9.40
molecule=Cc1ccc(OCCNCCCOc2ccc(F)cc2)cc1 system_tested="D(4) dopamine receptor (Homo sapiens, UniProt P21917)" limit_sign== observed_measurement=9.02
molecule=C#CC1=CC[C@H](N(CCC)CCCCNC(=O)c2ccc(-c3ccccc3)cc2)CC1 system_tested="D(4) dopamine receptor (Homo sapiens, UniProt P21917)" limit_sign== observed_measurement=8.24
molecule=O=c1ccc2ccc(CN3CCN(c4ccccc4)CC3)cc2o1 system_tested="D(4) dopamine receptor (Homo sapiens, UniProt P21917)" limit_sign== observed_measurement=7.57
molecule=C#Cc1cccc2c(CN3CCN(c4ccc(Cl)cc4)CC3)c(C)nn12 system_tested="D(4) dopamine receptor (Homo sapiens, UniProt P21917)" limit_sign== observed_measurement=8.82
molecule=O=C(NC1CCN(Cc2cccc(Cl)c2)CC1)c1ccc2ccccc2c1 system_tested="D(4) dopamine receptor (Homo sapiens, UniProt P21917)" limit_sign== observed_measurement=7.27
molecule=COc1ccc2c3c(c(=O)oc2c1)CN(Cc1ccc(Cl)cc1)CC3 system_tested="D(4) dopamine receptor (Homo sapiens, UniProt P21917)" limit_sign== observed_measurement=8.06
molecule=COc1cc2ccccc2cc1OCCC1CCN(Cc2ccccc2)CC1 system_tested="D(4) dopamine receptor (Homo sapiens, UniProt P21917)" limit_sign== observed_measurement=7.60
molecule=N#CC(CCNCCCCN1CCN(c2cccc(Cl)c2Cl)CC1)(c1ccccc1)c1ccccc1 system_tested="D(4) dopamine receptor (Homo sapiens, UniProt P21917)" limit_sign== observed_measurement=7.59
molecule="CC1CN(CCCCNC(=O)C(C)(C)C)CCN1c1ccc(Cl)cc1 (configuration not stated)" system_tested="D(4) dopamine receptor (Homo sapiens, UniProt P21917)" limit_sign== observed_measurement=7.20
molecule=COc1ccccc1N1CCN(CCCNC(=O)/N=N/c2ccc(F)cc2)CC1 system_tested="D(4) dopamine receptor (Homo sapiens, UniProt P21917)" limit_sign== observed_measurement=7.70
molecule="CCCN(CCc1cccs1)C1CCc2c(cccc2OC2CCCC2)C1 (configuration not stated)" system_tested="D(4) dopamine receptor (Homo sapiens, UniProt P21917)" limit_sign== observed_measurement=6.49
molecule=Clc1cccc(N2CCN(CCCCOc3cccn4nccc34)CC2)c1Cl system_tested="D(4) dopamine receptor (Homo sapiens, UniProt P21917)" limit_sign== observed_measurement=7.80
molecule=COc1ccccc1N1CCN(Cc2cn(-c3ccc(OCCF)cc3)nn2)CC1 system_tested="D(4) dopamine receptor (Homo sapiens, UniProt P21917)" limit_sign== observed_measurement=7.85
molecule="COc1c(C(=O)N[C@H]2CN(Cc3ccccc3)C[C@@H]2C)cc(Br)c2ccccc12 (stereo in doubt)" system_tested="D(4) dopamine receptor (Homo sapiens, UniProt P21917)" limit_sign== observed_measurement=7.23

---

Target: D(4) dopamine receptor (Homo sapiens, UniProt P21917)
Sequence (P21917 whole entry): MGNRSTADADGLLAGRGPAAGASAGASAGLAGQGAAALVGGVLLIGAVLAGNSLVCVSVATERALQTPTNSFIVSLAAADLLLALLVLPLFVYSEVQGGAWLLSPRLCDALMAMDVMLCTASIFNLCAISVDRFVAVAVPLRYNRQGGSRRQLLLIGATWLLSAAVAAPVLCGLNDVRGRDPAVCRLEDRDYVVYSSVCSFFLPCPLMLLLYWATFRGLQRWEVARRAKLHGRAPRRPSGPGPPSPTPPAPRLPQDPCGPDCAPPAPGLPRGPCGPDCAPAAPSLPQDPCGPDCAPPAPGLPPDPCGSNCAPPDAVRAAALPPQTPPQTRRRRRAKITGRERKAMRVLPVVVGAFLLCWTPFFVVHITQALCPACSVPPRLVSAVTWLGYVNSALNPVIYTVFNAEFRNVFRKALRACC
Collected set of log10 of Ki measured with D(4) dopamine receptor (Homo sapiens, UniProt P21917) across studies.
attribute_measured: log10 of Ki (log10 of the value in nM)

compound=COc1cc(CN2CCN(c3ccccc3OC)CC2)ccc1OCCCc1cn(CCCCCCCCCCn2cc(CCCOc3ccc(CN4CCN(c5ccccc5OC)CC4)cc3OC)nn2)nn1 observed_measurement=1.28
compound=Ic1cccn1C1CCN(Cc2ccccc2)CC1 observed_measurement=3.18
compound=COc1ccccc1N1CCCN(CCCCNC(=O)c2cc3ccccc3s2)CC1 observed_measurement=2.47
compound=COc1ccccc1N1CCN(CCCNC(=O)NCc2ccccc2-c2cccc(F)c2)CC1 observed_measurement=0.49
compound="Cc1ccc(N2CCN(CCC3c4ccccc4C(=O)N3C)CC2)cc1C (stereo not given)" observed_measurement=1.55
compound=COc1cc(CCNC[C@H](O)c2ccc(O)c3c2OCC(=O)N3)ccc1OCCCc1ccccc1 observed_measurement=3.15
compound=COc1ccccc1N1CCN(CCCNC(=O)NCc2cccc(F)c2-c2ccccc2)CC1 observed_measurement=0.04
compound=Cc1ccc(C2CCN(Cc3ccc4c(c3)NC(=O)CO4)CC2)cc1C observed_measurement=0.26
compound="N#CC(CCNCCC(O)CN1CCN(c2cccc(Cl)c2Cl)CC1)(c1ccccc1)c1ccccc1 (stereo not given)" observed_measurement=2.63

---

Collected set of Ki measured with the protein given by its sequence across studies.
Target chain: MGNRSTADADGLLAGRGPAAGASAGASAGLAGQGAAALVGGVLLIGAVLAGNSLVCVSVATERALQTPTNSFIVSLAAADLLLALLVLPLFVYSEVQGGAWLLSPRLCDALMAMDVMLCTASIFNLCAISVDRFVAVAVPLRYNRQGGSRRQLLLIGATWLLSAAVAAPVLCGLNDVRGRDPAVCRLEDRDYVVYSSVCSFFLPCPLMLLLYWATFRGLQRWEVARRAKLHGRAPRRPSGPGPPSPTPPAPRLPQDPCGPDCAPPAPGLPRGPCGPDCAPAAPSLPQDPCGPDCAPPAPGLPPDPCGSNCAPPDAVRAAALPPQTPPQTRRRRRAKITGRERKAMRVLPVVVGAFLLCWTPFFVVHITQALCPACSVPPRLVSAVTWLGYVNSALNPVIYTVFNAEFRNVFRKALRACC
Cut-off 800 nM on Ki: below means TRUE, at or above means FALSE.

molecule="COc1cc(N)c(Cl)cc1C(=O)N[C@H]1CCCN(Cc2ccccc2)C1 (stereo in doubt)" category=TRUE
molecule=COc1ccccc1N1CCN(CCCNC(=O)NN(Cc2ccc(F)cc2)c2ccc(F)cc2)CC1 category=TRUE
molecule=COc1ccccc1N1CCN(CCCNC(=O)Nc2ccccc2-c2cccc(F)c2)CC1 category=TRUE
molecule=O=C1CCc2ccc(OCCCCN3CCCN(c4ccc(O)c5oc(=O)ccc45)CC3)cc2N1 category=FALSE
molecule=O=C(CCCCCCCCCCCCCCCCCCCCC(=O)OC1(c2ccc(Cl)cc2)CCN(CCCC(=O)c2ccc(F)cc2)CC1)OC1(c2ccc(Cl)cc2)CCN(CCCC(=O)c2ccc(F)cc2)CC1 category=FALSE
molecule=O=C(O)c1ccc(OCCNCCCOc2ccccc2)cc1 category=FALSE
molecule=Cc1c(Cl)cccc1NC(=O)CN1CCC(OCc2cccc(C(F)(F)F)c2)CC1 category=FALSE
molecule=COc1ccc(N2CCN(Cc3ccc4ccc(=O)oc4c3)CC2)cc1 category=TRUE
molecule=COc1ccccc1N1CCN(CCCNC(=O)NN(Cc2ccccc2)c2ccc(F)cc2)CC1 category=TRUE
